Where these numbers come from: PubChem BioAssay

test details: CREB reporter modulators under forskolin, primary screen, cell-based, PC12, CRE-LacZ reporter, forskolin-stimulated (AID 1146);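 note: PC12 cells with 6xCRE LacZ reporter stimulated by forskolin 10 µM; beta-galactosidase reporter signal reflecting CREB driven transcription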
test parameters: luminescence, 4.5 h, higher = more signal, called active from +8 up or from −8 down
value type: z-score
Numbers only.

# annotated cases, reported z-score shown
compound | readout value
C=C[C@@H](COC(=O)OC(C)(C)C)N(Cc1ccc(OC)cc1)S(=O)(=O)c1ccc(Br)cc1 | 1.88
C=C(/C(=C/C[C@H](OC(C)=O)c1ccccc1OCCO)c1cnc2ccccc2c1)C(C)C | 1.49
COCCOC(=O)N1C(=O)[C@@]2(c3cc(C#CC4(O)CCCCCC4)ccc31)[C@H](c1ccccc1OCCO)N1[C@H](c3ccccc3)[C@H](c3ccccc3)OC(=O)[C@H]1[C@@H]2C(=O)N1CCN(c2ncccn2)CC1 | 0.411
CC(C)=CCCC(C)=CC(O)C1C=CC2C(=O)N(C)C(=O)C2N1Nc1ccccc1 (stereo not given) | -0.465
CO[C@H]1O[C@H](CO)[C@@H](OC(=O)Nc2ccccc2)[C@H](OC(=O)Nc2ccccc2)[C@@H]1OC(=O)Nc1ccccc1 | -0.825
COCCOC(=O)N1C(=O)[C@@]2(c3ccccc31)[C@H](C(=O)N1CCc3cc(OC)c(OC)cc3C1)[C@H]1C(=O)O[C@H](c3ccccc3)[C@H](c3ccccc3)N1[C@@H]2c1ccc(OCCO)cc1 | -0.653
C[N+](C)(C)CCCCCCNC(=O)[C@@H]1C[C@@H]2C(=O)N[C@@H](Cc3ccccc3)C(=O)N2[C@@H]1c1cccc(OCCO)c1 | -1.04
CCOC(=O)C1=C[C@@H](C(C)(C)C)N(S(=O)(=O)c2ccc(C)cc2)[C@H]1c1ccc(F)cc1 | 0.81
COC(=O)[C@@]1(Cc2ccccc2)N=C(c2ccc(OCCCO)cc2)O[C@H]1c1ccccc1 | -2.12
O=C1[C@@]23C=C(Br)[C@H](C[C@@H]2CCOC3)[C@@]12CO2 | 0.767

Each compound below has a recorded value; state its z-score.
1. COCCOC(=O)N1C(=O)[C@@]2(c3cc(C#CCNC(N)=O)ccc31)[C@H](C(=O)N1CCN(c3ncccn3)CC1)[C@H]1C(=O)O[C@H](c3ccccc3)[C@H](c3ccccc3)N1[C@@H]2c1ccc(OCCO)cc1
2. COc1cc(C(O)C2C=CC3C(=O)NC(=O)C3N2Nc2ccccn2)cc(OC)c1OC (stereo not given)
3. COC(=O)[C@@]1(Cc2ccccc2)[C@H]2c3cc(C(=O)N(C)C)n(Cc4ccsc4Br)c3C[C@H]2CN1C(=O)c1ccccc1
4. C=C[C@H](CO)NS(=O)(=O)c1ccc(Br)cc1

-0.0748
0.329
0.751
1.79

Can you look up the measured z-score of "Cc1ccc(N2C(=O)c3ccccc3[C@@H](C(=O)NC3CC3)[C@@H]2c2ccc(CO)cc2)nc1" for me?
0.986

* * *

System: Fibrinogen (Alexa647-labelled)
test details: fibrinogen binders on compound microarrays, profiling panel, artefact control for SMM control-protein annotation, biochemical, small-molecule microarray, 635/667 nm fluorescence (AID 1131);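 note: z-score merges 667 nm fluorescence with per-spot signal-to-noise over triplicate slides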
test parameters: fibrinogen-A647 binding fluorescence, higher = more signal
Assign class by composite z-score: not lower than 0.9 means Y; lower than 0.9 means N.

compound | answer label
CC1(C)C2C=C(C(O)C3C=CC4C(=O)NC(=O)C4N3Nc3ccc(Cl)cc3Cl)C[C@@H]1C2 (stereo partly drawn) | N
C[N+](C)(C)CCCCNC(=O)[C@@H]1C[C@@H]2C(=O)N[C@@H](Cc3ccccc3)C(=O)N2[C@@H]1c1cccc(OCCO)c1 | N
COCCOC(=O)N1C(=O)[C@@]2(c3cc(C#CCC(C(=O)OC)C(=O)OC)ccc31)[C@H](c1ccccc1OCCO)N1[C@H](c3ccccc3)[C@H](c3ccccc3)OC(=O)[C@H]1[C@@H]2C(=O)N1CCN(c2ncccn2)CC1 | N

Check this compound for composite z-score at or above 0.9: "COCCCNC(=O)[C@@]1(C)c2ccccc2C(=O)N(C(C)C)[C@H]1c1ccc(CO)cc1"
N

Same read-out for "COC(=O)[C@@]1(Cc2ccccc2)[C@H]2c3cc(C(=O)N4CCCC4)n(Cc4ccc(S(C)(=O)=O)cc4)c3C[C@H]2CN1C(=O)c1ccccc1" ?
Y

Param item: "COC(=O)C(CC#Cc1ccc2c(c1)[C@]1(C(=O)N2)[C@H](C(=O)Nc2nc3ccccc3s2)[C@H]2C(=O)O[C@H](c3ccccc3)[C@H](c3ccccc3)N2[C@@H]1c1ccc(O)cc1)C(=O)OC"
Y

// repeat for "COc1ccc(CCNC(=O)[C@@]2(Sc3ccc(C)cc3)CC(=O)N(C3Cc4ccccc4C3)[C@@H]2c2ccc(CO)cc2I)cc1" and report
N

Would you kindly repeat that for "Cc1ccc(S[C@]2(C(=O)O)CC(=O)N(C(C)C)[C@@H]2c2ccc(CO)cc2I)cc1" ?
N

Would you mind doing "COC(=O)[C@@]1(CCC(=O)OC(C)(C)C)N=C(c2ccc(OCCCO)cc2)O[C@H]1c1ccccc1N=[N+]=[N-]" as well?
Y

What about "O=C1C[C@@](C(=O)NCCN2CCOCC2)(c2ccc([N+](=O)[O-])cc2)[C@@H](c2ccc(CO)cc2I)N1CC12CC3CC(CC(C3)C1)C2" ?
Y

Same again, this time with "O=C1c2ccccc2[C@](Cc2ccccc2I)(C(=O)NCCN2CCOCC2)[C@H](c2ccc(CO)cc2)N1Cc1ccccc1Cl"
Y
